Origin of measurements: ChEMBL document CHEMBL5500393

Test system: Staphylococcus aureus
test_details: Antimicrobial activity against methicillin-susceptible Staphylococcus aureus ATCC29213 measured after 24 hrs by CLSI protocol based microdilution method
Type: functional
The entries below are paired with their reported MIC.

compound: COc1cccc(OC)c1C(=O)N[C@@H]1C(=O)N2[C@@H]1SC(C)(C)[C@@H]2C(=O)O
MIC: 2 µg/mL
//
compound: Cn1c(C2CC(=O)N(c3ccc(O)c(O)c3)C2)nc2ccccc21 (stereo not drawn)
MIC: > 32 µg/mL

Indicate its recorded MIC; the compound in question is Cc1cccc(NC(=O)CCNC(=O)CCc2nc3ccccc3n2C)c1C > 32 µg/mL

Indicate its recorded MIC; the compound in question is CC(=O)c1ccc(N2CC(c3nc4ccccc4n3C)CC2=O)cc1 (stereo not drawn) > 32 µg/mL

* * *

assay_target: Enoyl-[acyl-carrier-protein] reductase [NADPH] FabI (Staphylococcus aureus)
Sequence (Q6GI75 whole entry): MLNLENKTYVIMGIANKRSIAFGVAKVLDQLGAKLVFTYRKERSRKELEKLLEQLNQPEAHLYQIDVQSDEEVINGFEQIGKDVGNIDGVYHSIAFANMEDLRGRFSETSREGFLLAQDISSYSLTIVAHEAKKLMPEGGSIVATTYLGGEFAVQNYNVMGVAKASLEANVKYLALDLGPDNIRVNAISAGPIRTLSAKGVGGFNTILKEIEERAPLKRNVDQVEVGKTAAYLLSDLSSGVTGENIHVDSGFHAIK
Response field class: enum, chosen by comparing IC50 against lower = under 500 nM, middle = from 500 nM up to 2000 nM, upper = 2000 nM and over

Use the examples below as a reference point.
compound: COc1c(Br)cccc1N1CC(c2nc3ccccc3n2C)CC1=O (stereo not given)
assay_target: Enoyl-[acyl-carrier-protein] reductase [NADPH] FabI (Staphylococcus aureus)
category_label: lower
--
compound: Cc1c(O)cccc1N1CC(c2nc3ccccc3n2C)CC1=O (stereo not given)
assay_target: Enoyl-[acyl-carrier-protein] reductase [NADPH] FabI (Staphylococcus aureus)
category_label: middle
--
compound: COc1ccc(N2CC(c3nc4ccccc4n3C)CC2=O)cc1Br (stereo not given)
assay_target: Enoyl-[acyl-carrier-protein] reductase [NADPH] FabI (Staphylococcus aureus)
category_label: upper

The entry to classify is Cc1cccc(N2CC(c3nc4ccccc4n3C)CC2=O)c1Br (stereo not given) ; which class holds it? middle

The entry to classify is Cn1c(C2CC(=O)N(c3cccc(F)c3Br)C2)nc2ccccc21 (stereo not given) ; which class holds it? upper

The entry to classify is Cc1ccccc1N1CC(c2nc3ccccc3n2C)CC1=O (stereo not given) ; which class holds it? upper

The entry to classify is Cn1ccc2c(N3CC(c4nc5ccccc5n4C)CC3=O)cccc21 (stereo not given) ; which class holds it? upper

The entry to classify is Cc1cccc(N2CC(c3nc4ccccc4n3C)CC2=O)c1C (stereo not given) ; which class holds it? middle

The entry to classify is Cn1c(C2CC(=O)N(c3cccc(Br)c3F)C2)nc2ccccc21 (stereo not given) ; which class holds it? lower

The entry to classify is Cn1c(C2CC(=O)N(c3ccc(O)c(O)c3)C2)nc2ccccc21 (stereo not given) ; which class holds it? upper

The entry to classify is Cn1c(C2CC(=O)N(c3cccc(Cl)c3F)C2)nc2ccccc21 (stereo not given) ; which class holds it? middle

The entry to classify is CCCn1c(C2CC(=O)N(c3cccc(Br)c3C)C2)nc2ccccc21 (stereo not given) ; which class holds it? middle

The entry to classify is Cc1c(CN(C)C(=O)/C=C/c2cnc3c(c2)CCC(=O)N3)oc2ccccc12 ; which class holds it? lower

The entry to classify is Cc1cccc(N2CC(c3nc4ccccc4n3C)CC2=O)c1Cl (stereo not given) ; which class holds it? middle

The entry to classify is Cn1c(C2CC(=O)N(c3cccc(F)c3F)C2)nc2ccccc21 (stereo not given) ; which class holds it? lower

* * *

Test system: HepG2
test_details: Cytotoxicity against human HepG2 cells assessed as survival rate at 800 uM measured after 48 hrs by CCK-8 method relative to control
Assay type: functional
condition_description: read-out: Survival
quantity_name: viability at 800 µM

Solved cases (3 shown):
compound: Cn1c(C2CC(=O)N(c3cccc(Br)c3Cl)C2)nc2ccccc21 (stereo unspecified)
assay_target: HepG2
viability at 800 µM: > 75%
--
compound: Cc1c(Br)cccc1N1CC(c2nc3ccccc3n2C)CC1=O (stereo unspecified)
assay_target: HepG2
viability at 800 µM: > 75%
--
compound: CCn1c(C2CC(=O)N(c3cccc(Br)c3C)C2)nc2ccccc21 (stereo unspecified)
assay_target: HepG2
viability at 800 µM: > 65%

Indicate its recorded viability at 800 µM; the compound in question is Cc1c(Cl)cccc1N1CC(c2nc3ccccc3n2C)CC1=O (stereo unspecified) > 65%

Indicate its recorded viability at 800 µM; the compound in question is COc1c(Br)cccc1N1CC(c2nc3ccccc3n2C)CC1=O (stereo unspecified) > 65%

Indicate its recorded viability at 800 µM; the compound in question is Cn1c(C2CC(=O)N(c3cccc(Cl)c3Cl)C2)nc2ccccc21 (stereo unspecified) > 75%

* * *

test_details: Hemolytic activity in sheep erythrocytes assessed as hemolysis at 64 ug/ml incubated for 1 hr by microplate reader based analysis relative to control
Type: toxicity, cell-based, Ovis aries, Erythrocyte
condition_description: at 64 µg/mL, read-out: Activity
# hemolysis at 1 h, 64 ug/ml >= 3% gives MET, anything below gives NOT MET

Use the examples below as a reference point.
compound: COc1c(Br)cccc1N1CC(c2nc3ccccc3n2C)CC1=O (stereo unspecified)
category_label: NOT MET
--
compound: CCn1c(C2CC(=O)N(c3cccc(Br)c3C)C2)nc2ccccc21 (stereo unspecified)
category_label: MET
--
compound: Cc1c(Cl)cccc1N1CC(c2nc3ccccc3n2C)CC1=O (stereo unspecified)
category_label: MET
--
compound: Cn1c(C2CC(=O)N(c3cccc(Cl)c3Cl)C2)nc2ccccc21 (stereo unspecified)
category_label: NOT MET
--
compound: Cn1c(C2CC(=O)N(c3cccc(Br)c3Cl)C2)nc2ccccc21 (stereo unspecified)
category_label: NOT MET

With those in mind, consider the next compound.
Dear colleague, could you confirm whether Cc1c(Br)cccc1N1CC(c2nc3ccccc3n2C)CC1=O (stereo unspecified) has hemolysis at 1 h, 64 ug/ml at or above 3%? MET

* * *

assay_target: Enoyl-[acyl-carrier-protein] reductase [NADPH] FabI (Staphylococcus aureus)
test_details: Inhibition of N-terminal his 6 tagged Staphylococcus aureus Fabi (1 to […] residues) expressed in Escherichia coli BL21 at 10 uM incubated for 30 mins in presence of NADPH by fluorescence based microplate reader analysis relative to control
quantity_name: inhibition (%)
Numeric only. Scale: %

compound: Cc1cccc(N2CCC(c3nc4ccccc4n3C)CC2)c1C
reading_unit: %
inhibition: 2
//
compound: Cc1c(Br)cccc1N1CC(c2nc3ccccc3[nH]2)CC1=O (configuration not stated)
reading_unit: %
inhibition: 36.6
//
compound: Cc1ccccc1N1CC(c2nc3ccccc3n2C)CC1=O (configuration not stated)
reading_unit: %
inhibition: 85.2
//
compound: Cn1c(C2CC(=O)N(C3CCCCC3)C2)nc2ccccc21 (configuration not stated)
reading_unit: %
inhibition: 43.7
//
compound: Cn1c(C2CC(=O)N(c3cccc(-c4ccccc4)c3)C2)nc2ccccc21 (configuration not stated)
reading_unit: %
inhibition: 10.1
//
compound: Cn1c(C2CC(=O)N(c3cccc(F)c3Br)C2)nc2ccccc21 (configuration not stated)
reading_unit: %
inhibition: 83
//
compound: COc1cccc(N2CC(c3nc4ccccc4n3C)CC2=O)c1C (configuration not stated)
reading_unit: %
inhibition: 88.2
//
compound: COc1c(Br)cccc1N1CC(c2nc3ccccc3n2C)CC1=O (configuration not stated)
reading_unit: %
inhibition: 99.3
//
compound: Cn1c(C2CC(=O)N(c3cccc(Cl)c3Br)C2)nc2ccccc21 (configuration not stated)
reading_unit: %
inhibition: 95.8
//
compound: COc1ccc(N2CC(c3nc4ccccc4n3C)CC2=O)cc1OC (configuration not stated)
reading_unit: %
inhibition: 22.5

Kindly consider the entry below.
Name the recorded inhibition of Cc1cccc(NC(=O)c2cccc(NC(=O)c3nc4ccccc4n3C)c2)c1C , assay system Enoyl-[acyl-carrier-protein] reductase [NADPH] FabI (Staphylococcus aureus). 5

* * *

The entries below are paired with their reported clearance.
test_details: Clearance in female Sprague-Dawley rat at 5 mg/kg, iv measured upto 24 hrs by LC-MS analysis
Type: ADME, organism-based
condition_description: in vivo
Numeric only. Scale: mL/min/kg

Solved cases (2 shown):
compound: Cc1c(Br)cccc1N1CC(c2nc3ccccc3n2C)CC1=O (stereo not drawn)
meas_value: 26.7

compound: Cc1c(CN(C)C(=O)/C=C/c2cnc3c(c2)CCC(=O)N3)oc2ccccc12 [AFN-1252]
meas_value: 30

Indicate its recorded clearance; the compound in question is COc1c(Br)cccc1N1CC(c2nc3ccccc3n2C)CC1=O (stereo not drawn) 36.7
